# credit: patent EP0908457B1

system: Sagittaria pygmaea, L.; experiment: Preemergence weed control under flooded paddy conditions, SAGPY (Arrowhead (Pygmaea)); type: in vivo; details: 0.2500 kg/ha; preemergence, flooded paddy; rated three to four weeks after treatment
Property: SAGPY herbicidal rating
Answer with the value's number alone.

Known results for compounds:
> print(dat)
                                   compound                 property  reported
1  COc1ccc(CC(=O)OCc2nsc3ccc(-n4c(=O)cc(C(F)(F)F)n(C)c4=O)cc23)cc1OC  SAGPY herbicidal rating       9.0
2  CCC(C(=O)OCc1nsc2ccc(-n3c(=O)cc(C(F)(F)F)n(C)c3=O)cc12)c1ccccc1 (stereo not shown)  SAGPY herbicidal rating       3.0
3  Cn1c(C(F)(F)F)cc(=O)n(-c2ccc3snc(C(C)(C)C(=O)OCc4ccccn4)c3c2)c1=O  SAGPY herbicidal rating       6.0

Alright, here's another compound for you.
Give reported SAGPY herbicidal rating for "COC(=O)COc1cc(C)ccc1-c1nsc2cc(F)c(-n3c(=O)cc(C(F)(F)F)n(C)c3=O)cc12" (Sagittaria pygmaea, L.)
8.0

---

test system: Cyperus serotinus, Rottb.; test: Postemergence weed control under flooded paddy conditions, CYPSE (Flatsedge); format: in vivo; conditions: Rate 0.0620 kg/ha, rated three to four weeks after treatment
Property: herbicidal effect rating, CYPSE
Answer with the value's number alone.

Known results for molecules:
> print(dat)
                                        mol                test.target  reported
1  CCOc1cccc(-c2nsc3ccc(-n4c(=O)cc(C(F)(F)F)n(C)c4=O)cc23)c1  Cyperus serotinus, Rottb.       0.0
2  CCC(C#N)(CC)c1nsc2ccc(-n3c(=O)cc(C(F)(F)F)n(C)c3=O)cc12  Cyperus serotinus, Rottb.       2.0
3  CCCCC(=O)c1nsc2ccc(-n3c(=O)cc(C(F)(F)F)n(C)c3=O)cc12  Cyperus serotinus, Rottb.       0.0
4  COC(=O)COc1ccc(C)cc1-c1noc2cc(F)c(-n3c(=O)cc(C(F)(F)F)n(C)c3=O)cc12  Cyperus serotinus, Rottb.       0.0
5  COCc1nsc2cc(F)c(-n3c(=O)cc(C(F)(F)F)n(C)c3=O)cc12  Cyperus serotinus, Rottb.       9.0

Alright, here's another molecule for you.
State its herbicidal effect rating, CYPSE: "CON(C)C(=O)COc1ccccc1-c1nsc2ccc(-n3c(=O)cc(C(F)(F)F)n(C)c3=O)cc12"
2.0

---

tested on: Echinochloa oryzoides (Ard.) Fritsch.; assay: Postemergence weed control under flooded paddy conditions, ECHORC (Watergrass (Calif.)); type: in vivo; conditions: Rate 0.0320 kg/ha, rated three to four weeks after treatment
Entries and their measured herbicidal effect rating, ECHORC follow.
Answer with the value's number alone.

> print(dat)
                                   compound  reported
1  Cc1ccc(OCC(=O)OCC2(c3ccccc3)CC2)c(-c2nsc3ccc(-n4c(=O)cc(C(F)(F)F)n(C)c4=O)cc23)c1 [Example 517]       0.0
2  COc1cc2c(cc1-c1nsc3ccc(-n4c(=O)cc(C(F)(F)F)n(C)c4=O)cc13)CCC2 [Example 380]       7.0

Alright, here's another compound for you.
Give reported herbicidal effect rating, ECHORC for CCC(C#N)(CC)c1nsc2ccc(-n3c(=O)cc(C(F)(F)F)n(C)c3=O)cc12 [Example 445] (Echinochloa oryzoides (Ard.) Fritsch.)
4.0
